Data provenance is the Human Domainome abundance scans (Beltran et al. 2025).

B1: Zinc finger homeobox protein 4, residues 2086 to 2141; numbered along this chain, Q86UP3 (parent)
chain: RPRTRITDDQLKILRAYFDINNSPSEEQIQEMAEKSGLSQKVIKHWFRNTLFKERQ

# Variants of: B1
# assay: abundance fitness (aPCA) (normalised: wild type 0, dead -1); higher = more abundant; growth selection in yeast, the domain comes from the species named
# test-parameters: Homo sapiens
Binary call on abundance fitness: Fulfilled from -0.07 upward, Not fulfilled beneath that.

- W46P: Not fulfilled
- Q28F: Not fulfilled
- Q30F: Not fulfilled
- F47T: Not fulfilled
- D19F: Not fulfilled
- P24R: Not fulfilled
- E34I: Not fulfilled
- I43Y: Not fulfilled
- M32C: Not fulfilled
- E27L: Not fulfilled

Now consider the entry below.
# input Kindly determine if abundance fitness recorded for L51F is above or exactly -0.07.
# output Not fulfilled
